The entries below come with measured MIC50 fold change values attached.
- Test system: Acinetobacter baumannii-calcoaceticus complex
- Method: microbe, parasite or virus in culture
- Format: cell-based
- Condition details: relative to D8-acetate; Acinetobacter spp. (5 isolates)
Lab note: record the figure alone, no unit after it.

>>> assay_value("RTARCTCI [Peptide D8-V3A]")
32
>>> assay_value("RAVRCTCI [Peptide D8-T2A]")
2
>>> assay_value("RTVRCACI [Peptide D8-T6A]")
2
>>> assay_value("ATVRCTCI [Peptide D8-R1A]")
4

Let's switch to this sequence now.
### Prompt Please report the recorded MIC50 fold change for RTVRCTCA [Peptide D8-I8A] .
### Response 2

----------
- Tested on: Escherichia coli
- Method: microbe, parasite or virus in culture
- Assay type: cell-based
- Condition details: relative to D8-acetate; Escherichia coli (5 isolates)
Experimental readout: MIC50 fold change
Please reply with the number alone, leaving off any unit.

Solved entries (count: 4):
>>> assay_value("RAVRCTCI [Peptide D8-T2A]")
2
>>> assay_value("RTVRCTCA [Peptide D8-I8A]")
4
>>> assay_value("RTARCTCI [Peptide D8-V3A]")
16
>>> assay_value("RTVRCACI [Peptide D8-T6A]")
1

### Prompt For ATVRCTCI [Peptide D8-R1A] , what is its reported MIC50 fold change?
### Response 4

----------
- Tested on: Acinetobacter baumannii-calcoaceticus complex
- Method: microbe, parasite or virus in culture
- Format: cell-based
- Condition details: relative to D8-acetate; Acinetobacter spp. (5 isolates)
Consider the following sequences and their measured MIC50 fold change readings.

### Prompt Find the recorded MIC50 fold change belonging to RTVRATCI [Peptide D8-C5A] and report it.
### Response >32

### Prompt Next sequence: RTVACTCI [Peptide D8-R4A]
### Response >32

### Prompt Entry RTVRCTAI [Peptide D8-C7A] please
### Response >32

----------
- System: Escherichia coli
- Method: microbe, parasite or virus in culture
- Assay type: cell-based
- Condition details: relative to D8-acetate; Escherichia coli (5 isolates)
Experimental readout: MIC50 fold change

>>> assay_value("RTVRATCI [Peptide D8-C5A]")
">16"
>>> assay_value("RTVACTCI [Peptide D8-R4A]")
">16"

Let us examine a further case.
### Prompt I am curious: what MIC50 fold change value has been reported for RTVRCTAI [Peptide D8-C7A] ?
### Response >16
